- System: P388 leukemia ip, CD2F1 mice, survival T/C
- methodSummary: NCI In Vivo Anticancer Drug Screen. Data for tumor model P388 Leukemia (intraperitoneal) in CD2F1 (CDF1) mice
- testSettings: endpoint: median survival time; dose: 50.0 mg/kg/injection; schedule: Q01DX005 (ip); vehicle: Klucel (hydroxypropylcellulose) (HPC); higher = longer survival
Toxic doses and inconclusive results are not listed.
readout: T/C

>>> recordedvalue("CCOCCOCCOc1cccc2cccnc12")
"103 % of control"
>>> recordedvalue("O=C1NC(=O)C(=Cc2ccc(Cl)cc2)C(=O)N1")
"114 % of control"
>>> recordedvalue("CC1(C)CC(=O)C(C(c2cccc([N+](=O)[O-])c2)C2C(=O)CC(C)(C)CC2=O)C(=O)C1")
"96 % of control"
>>> recordedvalue("O=c1c2c(-c3cc(-c4ccccc4)nc4[nH]n(-c5ccccc5)c(=O)c34)cc(-c3ccccc3)nc2[nH]n1-c1ccccc1")
"96 % of control"
>>> recordedvalue("CC(=O)N=c1c(Br)cc(Br)c(C)n1O")
"93 % of control"
>>> recordedvalue("O=C(Nc1ccccc1C1=NCCN1)c1ccc(C(=O)Nc2ccccc2C2=NCCN2)cc1")
"96 % of control"
>>> recordedvalue("Cc1ccc(S(=O)(=O)/N=C2\\CCN(S(=O)(=O)c3ccc(C)cc3)N2S(=O)(=O)c2ccc(C)cc2)cc1")
"97 % of control"
>>> recordedvalue("COC(=O)C1=NNC2(c3ccccc3Sc3ccccc32)C1C(=O)OC (configuration not stated)")
"90 % of control"
>>> recordedvalue("COc1ccc(C=NCCC[Si]23OCCN(CCO2)CCO3)c(OC)c1OC")
"98 % of control"
>>> recordedvalue("CC(=O)OC(OC(C)=O)C(CSC#N)SC#N (configuration not stated)")
"102 % of control"
>>> recordedvalue("C=CC[C@]1(S(=O)(=O)c2ccccc2)[C@@H](N(C)C)C[C@@H](O[Si](C)(C)C(C)(C)C)[C@@H]1/C=C/[C@H](CCCCC)O[Si](C)(C)C(C)(C)C")
"107 % of control"
>>> recordedvalue("O=C1OC(c2ccccc2Br)=N/C1=C/c1ccccc1")
"99 % of control"

====

- Test system: P388 leukemia ip, CD2F1 mice, survival T/C
- methodSummary: NCI In Vivo Anticancer Drug Screen. Data for tumor model P388 Leukemia (intraperitoneal) in CD2F1 (CDF1) mice
- testSettings: endpoint: median survival time; dose: 200.0 mg/kg/injection; schedule: Q01DX001 (ip); vehicle: saline with Tween-80; higher = longer survival
Inconclusive results and toxic doses are left out.
readout: T/C

>>> recordedvalue("Cc1ccccc1NC(=O)CCC(=O)NS(C)(=O)=O")
"95 % of control"
>>> recordedvalue("O=C(NCC1OC(n2cnc3c(=O)[nH]cnc32)C(O)C1O)c1cccc(S(=O)(=O)F)c1 (stereo not drawn)")
"100 % of control"
>>> recordedvalue("O=C1/C(=C/c2ccc(O)cc2)Oc2cc(O)ccc21")
"91 % of control"

====

As shown below, each of these molecules has a reported T/C value.
- Tested on: P388 leukemia ip, CD2F1 mice, survival T/C
- methodSummary: NCI In Vivo Anticancer Drug Screen. Data for tumor model P388 Leukemia (intraperitoneal) in CD2F1 (CDF1) mice
- testSettings: endpoint: median survival time; dose: 400.0 mg/kg/injection; schedule: Q04DX002 (ip); vehicle: saline with Tween-80; higher = longer survival
Toxic doses and inconclusive results are not listed.
readout: T/C

>>> recordedvalue("CC1C(=O)NC(=O)CC1c1ccccc1 (stereo not given)")
"95 % of control"
>>> recordedvalue("CC1(C)CC(=O)C(C2=NCCCC2)=C(O)C1")
"100 % of control"
>>> recordedvalue("CC1=NN(C(=O)CC(=O)Nc2ccc(C(=O)O)cc2)C(=O)C1N=Nc1ccc(I)cc1 (stereo not given)")
"120 % of control"
>>> recordedvalue("CSc1ccccc1C(=O)O")
"102 % of control"
>>> recordedvalue("c1ccc(-c2cc3ccc4cccnc4c3o2)cc1")
"103 % of control"
>>> recordedvalue("O=C(O)Cc1c[nH]c2cc(Cl)cc(Cl)c12")
"101 % of control"
>>> recordedvalue("CC/C(C)=N/SC(c1ccccc1)(c1ccccc1)c1ccccc1")
"89 % of control"
>>> recordedvalue("O=[N+]([O-])c1ccc(C2OCC3CSCN32)cc1 (stereo not given)")
"97 % of control"
>>> recordedvalue("CCOC(=O)C1=CNN=CC12C(=O)NC(=Nc1ccccc1)N2c1ccccc1 (stereo not given)")
"95 % of control"
>>> recordedvalue("Cc1nn(C(=O)c2cccnc2)c(-c2ccccc2)c1N=Nc1ccc(S(N)(=O)=O)cc1")
"95 % of control"

====

// values below are reported T/C
- System: P388 leukemia ip, CD2F1 mice, survival T/C
- methodSummary: NCI In Vivo Anticancer Drug Screen. Data for tumor model P388 Leukemia (intraperitoneal) in CD2F1 (CDF1) mice
- testSettings: endpoint: median survival time; dose: 400.0 mg/kg/injection; schedule: Q04DX003 (ip); vehicle: Klucel (hydroxypropylcellulose) (HPC); higher = longer survival
Toxic doses and inconclusive results are not listed.
readout: T/C

>>> recordedvalue("O=C(Nc1ccc(Cl)c(Cl)c1)N1CC=CC1")
"94 % of control"
>>> recordedvalue("COc1cc2c(c(OC)c1OC)C(=O)CCC2")
"90 % of control"
>>> recordedvalue("CC(C)(C)SC(=O)CC(O)(c1ccccc1)c1ccccc1")
"95 % of control"
>>> recordedvalue("N#CCN=C(N)NN")
"108 % of control"
>>> recordedvalue("C=C(C)c1cc(C(C)(C)C)cc(C(C)(C)O)c1S(C)(=O)=O")
"95 % of control"

====

- Test system: P388 leukemia ip, CD2F1 mice, survival T/C
- methodSummary: NCI In Vivo Anticancer Drug Screen. Data for tumor model P388 Leukemia (intraperitoneal) in CD2F1 (CDF1) mice
- testSettings: endpoint: median survival time; dose: 100.0 mg/kg/injection; schedule: Q04DX002 (ip); vehicle: saline; higher = longer survival
- Procedure: The antitumor activity of compounds was measured in mice bearing transplantable tumors. Survival or tumor size were measured and the results are expressed as the measurement made in the treated group (T) divided by the measurement made in the vehicle treated control group (C). The tumor model used in this assay is P388 Leukemia (intraperitoneal) in CD2F1 (CDF1) mice
Inconclusive results and toxic doses are left out.
readout: T/C

>>> recordedvalue("CCOC(=O)C1C(=O)NN(/C=C2\\C=CC=CC2=O)C1c1ccc([N+](=O)[O-])cc1 (stereo unspecified)")
"111 % of control"
>>> recordedvalue("CCCCN(CCCC)S(=O)(=O)N1CCCCC1")
"98 % of control"
>>> recordedvalue("Cc1ccc(S(=O)(=O)/C=C/C(=O)c2cccs2)cc1")
"99 % of control"
>>> recordedvalue("[Co].[NH-]CCC[NH-].[NH-]CCC[NH-].[NH-]CCC[NH-]")
"100 % of control"
>>> recordedvalue("CC1(C)CN(c2ccccc2)N(C(=O)C(=O)N2C(=O)C(C)(C)CN2c2ccccc2)C1=O")
"104 % of control"
>>> recordedvalue("COC(=O)CC1(C(=O)OC)c2ccc3c(C(=O)C(F)(F)F)cccc3c2N2CCCC21 (stereo unspecified)")
"101 % of control"

====

- Test system: P388 leukemia ip, CD2F1 mice, survival T/C
- methodSummary: NCI In Vivo Anticancer Drug Screen. Data for tumor model P388 Leukemia (intraperitoneal) in CD2F1 (CDF1) mice
- testSettings: endpoint: median survival time; dose: 50.0 mg/kg/injection; schedule: Q01DX009 (ip); vehicle: saline
Toxic doses and inconclusive results are not listed. How the source made its calls: active means survival T/C of 150% or more; inactive means T/C below 125% in these data.
Possible outcomes: True = active, False = inactive

>>> grouplabel("CCCCOCN(COCCCC)c1ccccn1")
"False"
>>> grouplabel("N#CC1=C(C#N)CC2C(C1)OC1CC(C#N)=C(C#N)CC12 (centres undefined)")
"False"
>>> grouplabel("CCN(CC)CCNc1ccc(C)c2sc3ccccc3c(=O)c12 (tested in a mixture with another compound)")
"True"
>>> grouplabel("NC(=O)CC1(O)CCCCC1")
"False"

====

Measured T/C, listed per entry for reference.
- Test system: P388 leukemia ip, CD2F1 mice, survival T/C
- methodSummary: NCI In Vivo Anticancer Drug Screen. Data for tumor model P388 Leukemia (intraperitoneal) in CD2F1 (CDF1) mice
- testSettings: endpoint: median survival time; dose: 100.0 mg/kg/injection; schedule: Q04DX002 (ip); vehicle: saline with Tween-80; higher = longer survival
Toxic doses and inconclusive results are not listed.
readout: T/C

>>> recordedvalue("COC(=O)C1CC=CCC1C(=O)OC (stereo unspecified)")
"107 % of control"
>>> recordedvalue("CC(=O)Oc1cc(OCCCc2ccc(F)cc2)cc2ccc3ccccc3c12")
"92 % of control"
>>> recordedvalue("CCOC(=O)c1ccc(N=NN(C)CC2OC3OC(C)(C)OC3C2OC)cc1 (stereo unspecified)")
"98 % of control"
>>> recordedvalue("CC1(c2ccccc2)NN1")
"94 % of control"
>>> recordedvalue("OCCN1C(c2ccccc2)=CN2C=CSC21 (stereo unspecified)")
"97 % of control"
>>> recordedvalue("O=C1c2ccccc2C(=O)c2c(Nc3cccc(S(=O)(=O)N(CCO)CCO)c3)ccc(O)c21")
"92 % of control"
>>> recordedvalue("C[C@@H]1C(=O)O[C@H]2[C@H]1CC[C@@]1(C)C=C(Cl)C(=O)[C@@H](C)[C@H]21")
"117 % of control"
>>> recordedvalue("CSc1ccccc1C(=O)O")
"104 % of control"
>>> recordedvalue("CC/C(C)=N/SC(c1ccccc1)(c1ccccc1)c1ccccc1")
"101 % of control"
>>> recordedvalue("COc1ccc(NC(=O)C2C(=O)C(=O)N(c3ccc(OC)cc3)C2=O)cc1 (stereo unspecified)")
"100 % of control"
>>> recordedvalue("O=C(OC1CC2CCC1C2)c1cc([N+](=O)[O-])cc([N+](=O)[O-])c1 (stereo unspecified)")
"108 % of control"
>>> recordedvalue("CC(C)CC(Nc1ncnc2c1CCc1ccccc1-2)C(=O)O (stereo unspecified)")
"90 % of control"
>>> recordedvalue("CC(=O)C1C(C=C(C)C)C1(C)C (stereo unspecified)")
"96 % of control"
>>> recordedvalue("O=[N+]([O-])c1ccc(C2OCC3CSCN32)cc1 (stereo unspecified)")
"107 % of control"
>>> recordedvalue("CCOC(=O)C1=CNN=CC12C(=O)NC(=Nc1ccccc1)N2c1ccccc1 (stereo unspecified)")
"93 % of control"
>>> recordedvalue("CSC(=S)/N=c1/sccn1C")
"99 % of control"
>>> recordedvalue("COc1c(-c2ccccc2)cc(-c2ccccc2)c(-c2ccccc2)c1-c1ccccc1")
"93 % of control"
>>> recordedvalue("N#CCC(=O)N/N=C(/CC1(O)C(=O)Nc2c(Cl)ccc(Cl)c21)c1ccco1 (stereo unspecified)")
"97 % of control"
>>> recordedvalue("CCOc1cccc2c1C(O)(C#Cc1ccccc1)c1cccc(OCC)c1C2(O)C#Cc1ccccc1 (stereo unspecified)")
"87 % of control"
>>> recordedvalue("N#Cc1c(N2CCOCC2)cc(-c2ccccc2)oc1=O")
"100 % of control"
>>> recordedvalue("CCOC(=O)C(CC(C)C)NC(C)=O (stereo unspecified)")
"100 % of control"
